I'd appreciate it if you could supply % cell associated fraction values for the items below.
# system under test: B7-H3 on Calu-6 cells (human) (UniProt Q5ZPR3)
# Sequence (Q5ZPR3 29-534): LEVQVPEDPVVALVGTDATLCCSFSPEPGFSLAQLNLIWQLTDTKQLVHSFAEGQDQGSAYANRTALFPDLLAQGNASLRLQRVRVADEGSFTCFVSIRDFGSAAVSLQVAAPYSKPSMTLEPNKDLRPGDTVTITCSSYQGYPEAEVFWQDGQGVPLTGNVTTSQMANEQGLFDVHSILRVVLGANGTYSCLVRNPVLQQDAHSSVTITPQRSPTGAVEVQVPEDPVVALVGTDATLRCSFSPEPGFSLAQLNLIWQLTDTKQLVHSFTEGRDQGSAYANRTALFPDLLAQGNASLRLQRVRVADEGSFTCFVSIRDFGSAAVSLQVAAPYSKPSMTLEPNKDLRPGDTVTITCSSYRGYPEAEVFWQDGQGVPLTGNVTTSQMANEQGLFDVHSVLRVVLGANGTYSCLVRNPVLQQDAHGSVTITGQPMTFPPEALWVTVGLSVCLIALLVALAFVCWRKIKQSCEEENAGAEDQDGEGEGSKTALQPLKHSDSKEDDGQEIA
# method description: 177Lu-labelled peptide on Calu-6 cells, % cell associated fraction; C = >50%
Starred links: 1 amine or outer side, 2 acyl side, 3 side chain; linkers in the order of their positions; H or OH if unused. Positions of bridges follow the written chain, without caps; N, C: chain ends. Non-standard residues stand in square brackets, D forms with d. Groups on a side chain read outwards from the residue. Primed or numbered codes have the meaning given here. *: point of attachment. (2S,3S)βMePhe = C[C@@H](c1ccccc1)[C@H](N[*:1])C(=O)[*:2]; DOTA = O=C(O)CN1CCN(CC(=O)O)CCN(CC(=O)*)CCN(CC(=O)O)CC1; Phe(4-NHCONH2) = NC(=O)Nc1ccc(C[C@H](N)C(=O)O)cc1; PipAla = piperidinyl-alanine residue (as named); Trp(5-F) = N[C@@H](Cc1c[nH]c2ccc(F)cc12)C(=O)O; PEG4′ = 4x 3-(2-aminoethoxy)propanoic acid; Ala(4-THP) = N[C@@H](CC1CCOCC1)C(=O)O; Val(3-OH) = CC(C)(O)[C@H](N)C(=O)O; Tle = CC(C)(C)[C@H](N)C(=O)O; hLeu = CC(C)CC[C@H](N)C(=O)O

What measured % cell associated fraction goes with Ac-[hLeu]YC[Tle]G[PipAla][Ala(4-THP)]DV[Phe(4-NHCONH2)]CXF[hydroxyVal][dK](DOTA)-OH (disulfide 3-11 (inferred); not fully specified (residue 12); printed as Ac-hLeu-Y-C-Tbg-G-PipAla-ThpA-D-V-Aph(Cbm)-C-5FW-F-hydroxyVal-dLys(DOTA)-COOH, disulfide) [Cpd 427] ?
> 50%

Likewise for Ac-[hLeu]YC[Tle]G[PipAla](CH2COOH)[Ala(4-THP)]DVYC[Trp(5-F)][(2S,3S)βMePhe][Val(3-OH)][dK](DOTA)-OH (disulfide 3-11 (inferred)) [Cpd 497] ?
> 50%

Likewise for Ac-[hLeu]YC[Tle]GK[Ala(4-THP)]DVYC[Trp(5-F)]F[Val(3-OH)][dK]([PEG4′-DOTA])-OH (disulfide 3-11 (inferred)) [Cpd 310] ?
> 50%
